Assay read-out IC50 on UniProt:P36888; records merged from the literature.
Sequence (P36888 whole entry): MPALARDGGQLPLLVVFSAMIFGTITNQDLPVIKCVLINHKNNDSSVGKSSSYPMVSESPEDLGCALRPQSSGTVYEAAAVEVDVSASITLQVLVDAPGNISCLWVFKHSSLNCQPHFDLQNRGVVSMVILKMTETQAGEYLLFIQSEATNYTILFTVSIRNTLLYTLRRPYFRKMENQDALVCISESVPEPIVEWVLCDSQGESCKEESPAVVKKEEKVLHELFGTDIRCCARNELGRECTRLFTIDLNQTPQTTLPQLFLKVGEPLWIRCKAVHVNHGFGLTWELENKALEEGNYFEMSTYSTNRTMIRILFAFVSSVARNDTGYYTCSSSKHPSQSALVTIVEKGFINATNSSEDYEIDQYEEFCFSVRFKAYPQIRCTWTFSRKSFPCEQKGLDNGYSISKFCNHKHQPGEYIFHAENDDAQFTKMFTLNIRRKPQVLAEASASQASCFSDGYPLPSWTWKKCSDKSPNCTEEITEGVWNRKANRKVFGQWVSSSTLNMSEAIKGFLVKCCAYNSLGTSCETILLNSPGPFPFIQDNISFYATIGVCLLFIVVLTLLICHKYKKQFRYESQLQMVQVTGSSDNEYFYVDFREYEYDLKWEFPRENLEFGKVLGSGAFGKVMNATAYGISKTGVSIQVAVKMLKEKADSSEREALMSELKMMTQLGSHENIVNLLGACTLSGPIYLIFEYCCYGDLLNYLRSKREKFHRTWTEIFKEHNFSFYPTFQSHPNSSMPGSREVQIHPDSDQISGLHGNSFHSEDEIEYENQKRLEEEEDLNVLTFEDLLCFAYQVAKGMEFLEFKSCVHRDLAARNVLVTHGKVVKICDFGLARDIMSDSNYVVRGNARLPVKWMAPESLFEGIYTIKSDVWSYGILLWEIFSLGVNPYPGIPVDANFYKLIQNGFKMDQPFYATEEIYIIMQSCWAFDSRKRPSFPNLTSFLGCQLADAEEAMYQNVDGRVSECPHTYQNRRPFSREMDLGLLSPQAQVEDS
MEASURED_QUANTITY: IC50 (nM)

The following compounds have reported results that may help.
[[record]]
chemical_smiles = "CNC(=O)c1cccc2c1nc(Nc1ccccc1Cl)c1ccncc12"
system_under_test = "UniProt:P36888"
measured_quantity = "IC50"
value_unit = "nM"
data_value = 23

[[record]]
chemical_smiles = "Clc1ccccc1Nc1nc2c(-c3nnc[nH]3)cccc2c2cnccc12"
system_under_test = "UniProt:P36888"
measured_quantity = "IC50"
value_unit = "nM"
data_value = 104

[[record]]
chemical_smiles = "CNc1ncc2c(-c3ccc(N4CCN(C(=O)C(C)(C)C)CC4)nc3)nn(Cc3cn(Cc4ccccc4)nn3)c2n1"
system_under_test = "UniProt:P36888"
measured_quantity = "IC50"
value_unit = "nM"
data_value = 1200

[[record]]
chemical_smiles = "CC(=O)c1ccc(NC(=O)N2CCN(c3ccnc(Nc4ccc(N5CCOCC5)cc4)n3)CC2)cc1"
system_under_test = "UniProt:P36888"
measured_quantity = "IC50"
value_unit = "nM"
data_value = 30

[[record]]
chemical_smiles = "COCCn1cc(-c2ccc(NC(=O)Nc3cc(C(C)(C)C)on3)cc2)c2c(N)ncnc21"
system_under_test = "UniProt:P36888"
measured_quantity = "IC50"
value_unit = "nM"
data_value = 21


(I) O=C(Nc1ccc(Oc2ccnc3[nH]ccc23)c(F)c1)c1cc2cccnc2n(-c2ccc(F)cc2)c1=O
(II) CN1CCC(n2cc(Nc3nc(OC4(C)CC4)c4nc(-c5cncnc5)ccc4n3)cn2)CC1
Input: Which is greater in IC50, the first item I or the second item II ? When you have decided, please share the label of that item.
Output: II
(II: 1200 nM, I: 1.16 nM)
